# Test system: Ischemic Isolated Rat Heart
# ASSAY: Globally ischemic isolated perfused rat heart (Langendorff), protective effect
# Set-up: species or system Male Sprague-Dawley rats
# TEST_SETTINGS: 10 µM, after 10 minutes drug treatment, before ischemia; n = 4
READOUT_LABEL: HR (Heart Rate), Pre-ischemic Event (Post Drug) (beats/min)
Answers are plain numbers, in beats/min.

• CC1(C)Oc2ccc(C#N)cc2[C@@H](NC(=NC#N)Oc2ccccc2)[C@@H]1O = 238
• CC1(C)Oc2ccc(C#N)cc2C(N2CCCC2=O)C1O (stereo not shown) [Cromakalim, cromakalim, reference compound] = 250
• CC1(C)Oc2ccc(C#N)cc2[C@@H](NC(=NC#N)Nc2ccccc2)[C@@H]1O = 244

The record that follows has no HR (Heart Rate), Pre-ischemic Event (Post Drug) shown yet.
Check Ischemic Isolated Rat Heart data and give HR (Heart Rate), Pre-ischemic Event (Post Drug) for `CC1(C)Oc2ccc(C#N)cc2[C@@H](NC(=S)Nc2ccccc2)[C@@H]1O` . 236
